The entries below pair compounds with pIC50 values for UniProt:P53341, as found in several publications.
Sequence (P53341 whole entry): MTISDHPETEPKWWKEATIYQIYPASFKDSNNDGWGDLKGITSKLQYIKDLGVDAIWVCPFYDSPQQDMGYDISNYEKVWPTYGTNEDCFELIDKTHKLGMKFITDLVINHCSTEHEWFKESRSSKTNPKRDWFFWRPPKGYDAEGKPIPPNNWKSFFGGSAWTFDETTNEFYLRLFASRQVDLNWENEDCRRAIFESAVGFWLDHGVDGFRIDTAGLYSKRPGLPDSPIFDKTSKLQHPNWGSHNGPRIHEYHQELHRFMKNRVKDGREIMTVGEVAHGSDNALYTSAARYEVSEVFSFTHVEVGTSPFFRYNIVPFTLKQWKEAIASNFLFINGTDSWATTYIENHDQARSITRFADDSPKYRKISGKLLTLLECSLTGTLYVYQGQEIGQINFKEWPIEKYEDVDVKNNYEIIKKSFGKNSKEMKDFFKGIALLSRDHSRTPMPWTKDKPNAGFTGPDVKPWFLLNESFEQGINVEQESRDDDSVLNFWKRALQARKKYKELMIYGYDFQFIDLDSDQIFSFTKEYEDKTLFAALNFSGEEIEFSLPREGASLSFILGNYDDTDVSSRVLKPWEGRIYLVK
pIC50: −log10 of the molar value.
result.type: pIC50

Use these answered entries as a reference point.
- compound: "O=c1oc2ccccc2cc1-c1ccnc2nnnn12"
  target.or.system: "UniProt:P53341"
  pIC50: 3.35
- compound: "OCC[C@H]1N[C@H](CO)[C@@H](O)[C@@H]1O"
  target.or.system: "UniProt:P53341"
  pIC50: 3.60
- compound: "COC(=O)CC1Oc2ccccc2-c2cc(C)c3c(c21)C(=O)C(=O)N3Cc1ccccc1 (stereo not drawn)"
  target.or.system: "UniProt:P53341"
  pIC50: 4.41

(1) O=[N+]([O-])c1cccc(CNC[C@@H]2O[C@H](CO)[C@@H](O)[C@H](O)[C@H]2O)c1
(2) COC(=O)CC1Oc2ccccc2-c2ccc3c(c21)C(=O)C(=O)N3C (stereo not drawn)
pIC50 comparison. Which is larger, 1 or 2 ? Your choice should be expressed through its label.
1
